- subject_of_test: CD44v6 on cultured cancer cells (BHT-101, ACT-1, A431) (human) (UniProt P16070)
- procedure_details: live BHT-101 cells; apparent KD
Reported Kd values for the following binders.

Worked cases, answers included:
>  <binder>
AL-MN114-18 hIgG4 (antibody, V domains shown) VH: EVQLLESGGGLVQPGGSLRLSCAASGFSFGSFAMSWVRQAPGKGLEWVSAISGGGSSTYYADSVKGRFTISRDNSKNTLYLQMNSLRAEDTAVYYCARHYYSDSDYRSSAAMDYWGQGTLVTVSS VL: DIQMTQSPSSLSASVGDRVTITCRASQTIASYLNWYQQKPGKAPKLLIYTASNLQSGVPSRFSGSGSGTDFTLTISSLQPEDFATYYCQQDLYLLTFGQGTKLEIK

>  <Kd>
< 200 pM

$$$$
>  <binder>
AL-MN114-145 hIgG4 (antibody, V domains shown) VH: EVQLLESGGGLVQPGGSLRLSCAASGFSFSSFAMSWVRQAPGKGLEWVSAISAGGSSTFYADSVKGRFTISRDNSKNTLYLQMNSLRAEDTAVYYCARHYYSDSDYRSSAAMDYWGQGTLVTVSS VL: DIQMTQSPSSLSASVGDRVTITCRASQSIGSYLNWYQQKPGKAPKLLIYSASNLQSGVPSRFSGSGSGTDFTLTISSLQPEDFATYYCQQDLYLLTFGQGTKLEIK

>  <Kd>
< 200 pM

$$$$

Now consider the entry below.
Noted for AL-MN114-465 hIgG4 (antibody, V domains shown) VH: EVQLLESGGGLVQPGGSLRLSCAASGFSFGSYAMSWVRQAPGKGLEWVSAISAGGSSTFYADSVKGRFTISRDNSKNTLYLQMNSLRAEDTAVYYCARHYYSDSDYRSSAAMDYWGQGTLVTVSS VL: DIQMTQSPSSLSASVGDRVTITCRASQSISSYLNWYQQKPGKAPKLLIYTASSLQSGVPSRFSGSGSGTDFTLTISSLQPEDFATYYCQQDLYLLTFGQGTKLEIK : its Kd reads < 200 pM
